Answer each item with its documented koff.
- MEASURED_ON: T1, human angiopoietin-2 (human, UniProt O15123 19-496, limits assumed)
- T1 construct: Bought recombinant protein with a His tag (detected by anti-HIS-tag antibody); also called human Ang-2; hAng-2
- T1 sequence (looked up): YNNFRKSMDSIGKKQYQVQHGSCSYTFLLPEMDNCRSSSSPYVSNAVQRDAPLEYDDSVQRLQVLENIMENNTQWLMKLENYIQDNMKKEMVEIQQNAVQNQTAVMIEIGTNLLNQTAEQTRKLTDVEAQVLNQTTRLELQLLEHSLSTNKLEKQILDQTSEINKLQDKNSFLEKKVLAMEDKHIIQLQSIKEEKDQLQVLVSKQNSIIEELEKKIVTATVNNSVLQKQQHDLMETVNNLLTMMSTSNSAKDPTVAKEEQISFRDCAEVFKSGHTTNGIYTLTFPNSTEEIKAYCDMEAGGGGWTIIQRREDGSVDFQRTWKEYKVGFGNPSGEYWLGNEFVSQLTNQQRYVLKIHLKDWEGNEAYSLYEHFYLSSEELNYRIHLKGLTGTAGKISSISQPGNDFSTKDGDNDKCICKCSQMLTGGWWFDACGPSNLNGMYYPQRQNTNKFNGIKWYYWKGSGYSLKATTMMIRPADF
- ASSAY_NAME: SPR Biacore T200; biotinylated mutein captured, hAng-2 analyte, 1:1 model, 25 C
Numbers only, in s⁻¹.

The cases that follow already have their koff on record.
# BINDER, RECORDED_VALUE
measured = [
    ("hNGAL lipocalin mutein SEQ ID NO: 7 (designed binder, Mutein of mature hNGAL; Biotinylated with NHS-PEG4-Biotin for the SPR assay) QDSTSDLIPAPPLSKVPLQQNFQDNQFHGKWYVVGHAGNYILREDKDPEKMWATIYELKEDKSYDVTEVSFGPKKCNYRIWTFVPGSQPGEFTLGGIKSPPGDTSTLVRVVSTNYNQHAMVFFKHVLQNREFFEITLYGRTKELTSELKENFIRFSKSLGLPENHIVFPVPIDQCIDGSAWSHPQFEK", 0.00026),
    ("hNGAL lipocalin mutein SEQ ID NO: 11 (designed binder, Mutein of mature hNGAL; Biotinylated with NHS-PEG4-Biotin for the SPR assay) QDSTSDLIPAPPLSKVPLQQNFQDNQFHGKWYVVGQAGNYILREDKDPVKMWATIYELKEDKSYDVTEVSFGPKKCNYRIWTFVPGSQPGEFTLGGIKSLPGGTSTLVRVVSTNYNQHAMVFFKHVLQNREFFEITLYGRTKELTSELKENFIRFSKSLGLPENHIVFPVPIDQCIDGSAWSHPQFEK", 0.00087),
]

Read the next record carefully.
query: Requested field: koff. Item: hNGAL lipocalin mutein SEQ ID NO: 9 (designed binder, Mutein of mature hNGAL; Biotinylated with NHS-PEG4-Biotin for the SPR assay) QDSTSDLIPAPPLSKVPLQQNFQDNQFHGKWYVVGHAGNYILREDKDPGKMWATIYELKEDKSYDVTEVSFGPKKCNYRIWTFVPGSQPGEFTLGGIKSPPGGTSTLVRVVSTNYNQHAMVFFKHVLQNREFFEITLYGRTKELTSELKENFIRFSKSLGLPENHIVFPVPIDQCIDGSAWSHPQFEK
result: 9.4e-05

Reference source: patent US20180016312A1
